Attribution: patent US20160362487A1

Target: T1, cynomolgus monkey IL-33 expressed with a C-terminal hexahistidine tag (cynomolgus monkey)
T1 construct: also called MfIL-33-6His; Mf-IL-33-6His
T1 chain: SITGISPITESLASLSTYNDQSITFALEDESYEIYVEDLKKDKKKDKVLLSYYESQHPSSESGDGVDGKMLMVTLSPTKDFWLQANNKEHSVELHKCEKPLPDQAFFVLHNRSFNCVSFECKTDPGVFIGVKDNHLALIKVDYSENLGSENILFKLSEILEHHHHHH
Experiment: SPR 37C pH7.4, mAb captured

Binder	Result Units	koff
H4H9662P (antibody, V domains shown, Human IgG4 Fc (H4H)) VH: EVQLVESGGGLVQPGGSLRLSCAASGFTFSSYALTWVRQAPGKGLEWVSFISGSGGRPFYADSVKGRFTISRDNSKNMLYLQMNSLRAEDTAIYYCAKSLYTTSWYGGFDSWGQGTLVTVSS VL: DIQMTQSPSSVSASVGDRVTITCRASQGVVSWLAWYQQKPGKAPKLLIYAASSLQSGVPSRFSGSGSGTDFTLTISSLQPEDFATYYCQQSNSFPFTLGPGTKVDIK	s⁻¹	0.00158
H4H9640P (antibody, human IgG4, V domains shown, Human IgG4 Fc (H4H)) VH: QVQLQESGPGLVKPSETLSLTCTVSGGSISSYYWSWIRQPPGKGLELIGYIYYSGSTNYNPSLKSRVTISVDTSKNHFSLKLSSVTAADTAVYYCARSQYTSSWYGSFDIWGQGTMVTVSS VL: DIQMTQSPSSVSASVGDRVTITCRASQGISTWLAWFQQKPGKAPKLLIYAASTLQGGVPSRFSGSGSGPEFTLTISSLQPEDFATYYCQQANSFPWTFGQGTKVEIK	s⁻¹	0.00436
